Ref: patent US20200138829A1

System: MiaPaCa-2 pancreatic cancer cell line
Experiment: Cell viability assay (CellTiter Glo), MiaPaCa-2
Assay type: cell-based
Settings: Homo sapiens, MIA PaCa-2, 96 hours of incubation
recorded_endpoint: IC50

[[record]]
molecule = "COC(=O)c1ccc([C@H]2c3[nH]c4ccccc4c3C[C@H](C(=O)OC)N2C(=O)CCl)cc1 [RSL3]"
test_value = "8 nM"


====

Tested on: Capan-1 cells
Experiment: Combination proliferation assay with PKC activator, Capan-1
Format: cell-based
recorded_endpoint: synergy with K101A or K102 to block proliferation

[[record]]
molecule = "Cc1onc(C(=O)N2CCN(C(c3ccc(Cl)cc3)c3ccc(Cl)cc3)CC2)c1[N+](=O)[O-]"
system_name = "Capan-1 cells"
test_value = "synergized strongly"

[[record]]
molecule = "CCOc1ccccc1-n1c(C(C)N2CCN(C(=O)COc3ccc(Cl)cc3)CC2)nc2ccccc2c1=O (stereo not shown)"
system_name = "Capan-1 cells"
test_value = "did not synergize"

[[record]]
molecule = "CC[P](CC)(CC)=[Au][S]C1OC(COC(C)=O)C(OC(C)=O)C(CC(C)=O)C1OC(C)=O (stereo not shown)"
system_name = "Capan-1 cells"
test_value = "did not synergize"

[[record]]
molecule = "COC(=O)c1ccc([C@H]2c3[nH]c4ccccc4c3C[C@H](C(=O)OC)N2C(=O)CCl)cc1"
system_name = "Capan-1 cells"
test_value = "synergized strongly"

